Test system: SF-539 CNS
protocol.details: NCI tumour cell line growth inhibition, 48 h

# molecule, sign.qualifier, TGI / µM
data = [
    ("Cn1ccc2c(C(=O)c3ccccc3)cccc2c1=O", ">", 100),
    ("CC1OC(OC2C(OC(=O)[C@@H]3CC(C)(C)C[C@@H]4C5=CC[C@@H]6[C@@]7(C)C[C@H](O)[C@H](OC8OC(CO)C(O)C(O)C8O)[C@@](C)(CO)C7[C@H](O)C[C@@]6(C)[C@]5(C)C[C@@H](O)[C@H]43)OCC(O)C2O)C(O)C(O)C1O (stereo not given in full)", ">", 15),
    ("COc1cc(/C=C2\\C(=O)N(c3ccccc3Cl)C(c3ccccc3)S2(=O)=O)cc(OC)c1OC (stereo not given)", "=", 38.3),
    ("CN(Cc1cccc2ccccc12)Cc1cccc2ccccc12", "=", 59.6),
    ("N#Cc1ccc(C(=O)/C=C/c2ccc(O)c(O)c2)cc1", "=", 29.7),
]

Value source: PubChem BioAssay (NCI)
